// reported binding signal per item
biological target: GST-Hu-p50 (Homo sapiens, UniProt P19838 7-356); assay: protein-binding microarray (PBM); PBM: ~300 nM protein, 6 mM HEPES pH 7.8, 80 mM KCl, 0.5 mM EDTA, 0.5 mM EGTA, 6% glycerol, 35 ng/ul poly-dIdC, 1% milk, 1 h, room temperature; high values mean tight binding; settings: dsDNA, one strand shown
Sequence (P19838 7-356): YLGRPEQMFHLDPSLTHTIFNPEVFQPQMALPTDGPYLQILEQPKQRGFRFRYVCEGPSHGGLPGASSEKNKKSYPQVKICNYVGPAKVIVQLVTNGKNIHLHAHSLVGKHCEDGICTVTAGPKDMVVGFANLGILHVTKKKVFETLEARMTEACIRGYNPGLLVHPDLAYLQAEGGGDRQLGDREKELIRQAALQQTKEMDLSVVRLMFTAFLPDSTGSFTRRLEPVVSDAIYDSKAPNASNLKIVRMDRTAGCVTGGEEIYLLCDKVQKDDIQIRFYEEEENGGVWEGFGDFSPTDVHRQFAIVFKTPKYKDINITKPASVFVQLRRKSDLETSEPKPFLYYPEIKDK
Write the number in z-score without appending the unit.

{"columns": ["Input sequence", "binding signal (z-score)"],
 "data": [
  ["CCGATTAACATCAGGGAAATTTATGATGTTAATCGGGTCTTGATTCGCTTGACGCTGCTG", 5.55]
]}

The sequence CCGATTAACATCACGAAAGTCCCTGATGTTAATCGGGTCTTGATTCGCTTGACGCTGCTG , when measured on GST-Hu-p50 (Homo sapiens, UniProt P19838 7-356), yielded binding signal of 5.45

The sequence CCGATTAACATCAGAGACCCCCCTGATGTTAATCGGGTCTTGATTCGCTTGACGCTGCTG , when measured on GST-Hu-p50 (Homo sapiens, UniProt P19838 7-356), yielded binding signal of 3.87

The sequence CCGATTAACATCAGGATTATCCCTGATGTTAATCGGGTCTTGATTCGCTTGACGCTGCTG , when measured on GST-Hu-p50 (Homo sapiens, UniProt P19838 7-356), yielded binding signal of 1.73

The sequence CCGATTAACATCAAAGCCCCCCCTGATGTTAATCGGGTCTTGATTCGCTTGACGCTGCTG , when measured on GST-Hu-p50 (Homo sapiens, UniProt P19838 7-356), yielded binding signal of 4.63

The sequence CCGATTAACATCAAAAGTTCCCCTGATGTTAATCGGGTCTTGATTCGCTTGACGCTGCTG , when measured on GST-Hu-p50 (Homo sapiens, UniProt P19838 7-356), yielded binding signal of 6.5

The sequence CCGATTAACATCAAACATTCCCATGATGTTAATCGGGTCTTGATTCGCTTGACGCTGCTG , when measured on GST-Hu-p50 (Homo sapiens, UniProt P19838 7-356), yielded binding signal of 2.11

---

Target: GST-Aq-NF-kB (Amphimedon queenslandica, UniProt A9Y5G7 2-389)
Sequence: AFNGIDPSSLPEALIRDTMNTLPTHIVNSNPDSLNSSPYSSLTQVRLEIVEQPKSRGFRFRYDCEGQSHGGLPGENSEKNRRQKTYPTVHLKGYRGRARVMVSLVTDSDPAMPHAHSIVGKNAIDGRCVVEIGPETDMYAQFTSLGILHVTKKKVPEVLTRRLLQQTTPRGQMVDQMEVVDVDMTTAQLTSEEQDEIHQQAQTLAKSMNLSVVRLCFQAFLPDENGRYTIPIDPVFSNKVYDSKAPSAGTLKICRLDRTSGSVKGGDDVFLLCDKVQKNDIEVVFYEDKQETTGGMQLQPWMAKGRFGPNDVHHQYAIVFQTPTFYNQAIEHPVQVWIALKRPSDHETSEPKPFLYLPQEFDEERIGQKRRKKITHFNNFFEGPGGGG
Experiment: protein-binding microarray (PBM); PBM: ~300 nM protein, 6 mM HEPES pH 7.8, 80 mM KCl, 0.5 mM EDTA, 0.5 mM EGTA, 6% glycerol, 35 ng/ul poly-dIdC, 1% milk, 1 h, room temperature; Ap Aiptasia and Nv Nematostella (sea anemones) / Co Capsaspora / Aq Amphimedon (sponge) / Dm Drosophila / Hu human; RHD is the Rel homology domain; high values mean tight binding
Conditions: dsDNA, one strand shown
Measured quantity: binding signal (z-score)
Write the number in z-score without appending the unit.

{"columns": ["Input sequence", "Observed result"],
 "data": [
  ["CCGATTAACATCAGGAAAGTCCCTGATGTTAATCGGGTCTTGATTCGCTTGACGCTGCTG", 9.81],
  ["CCGATTAACATCACAGAGTCCCCTGATGTTAATCGGGTCTTGATTCGCTTGACGCTGCTG", 4.31],
  ["CCGATTAACATCAAGTTCCCCCCTGATGTTAATCGGGTCTTGATTCGCTTGACGCTGCTG", 6.03],
  ["CCGATTAACATCAAAAAATCCCTTGATGTTAATCGGGTCTTGATTCGCTTGACGCTGCTG", 7.46],
  ["CCGATTAACATCAATCTTTCCCCTGATGTTAATCGGGTCTTGATTCGCTTGACGCTGCTG", 5.91],
  ["CCGATTAACATCAAAAGTCCCCTTGATGTTAATCGGGTCTTGATTCGCTTGACGCTGCTG", 7.89],
  ["CCGATTAACATCAAAGGACCCCCTGATGTTAATCGGGTCTTGATTCGCTTGACGCTGCTG", 3.79],
  ["CCGATTAACATCAGGAAGTTACCTGATGTTAATCGGGTCTTGATTCGCTTGACGCTGCTG", 2.57]
]}

Could you now consider this next sequence?
Lab book: binding signal of CCGATTAACATCAAAAAATCACCTGATGTTAATCGGGTCTTGATTCGCTTGACGCTGCTG noted as 3.98
